All values here come from ChEMBL document CHEMBL1150464.

# maps each entry to its pKB
- target_desc: Substance-K receptor (Mesocricetus auratus)
- protocol_summary: Compound was tested for its antagonistic activity against tachykinin NK2 receptor in hamster trachea (HT).
- Format: functional

{"compound": "CC(C)[C@H](NC(=O)[C@H](Cc1c[nH]c2ccccc12)NC(=O)[C@H](Cc1ccc(O)cc1)NC(=O)[C@H](CC(=O)O)NC(=O)[C@@H](N)CO[C@@H]1O[C@H](CO)[C@@H](O)[C@H](O)[C@H]1O)C(=O)N[C@@H](Cc1c[nH]c2ccccc12)C(=O)N[C@H](Cc1c[nH]c2ccccc12)C(=O)N[C@@H](CCCCN)C(N)=O", "target_desc": "Substance-K receptor (Mesocricetus auratus)", "inequality_sign": "<", "pKB": 5}
{"compound": "CC(C)[C@H](NC(=O)C(Cc1c[nH]c2ccccc12)NC(=O)[C@H](Cc1ccc(O)cc1)NC(=O)[C@H](CC(=O)O)NC(=O)[C@@H](N)CO[C@@H]1O[C@H](CO)[C@@H](O)[C@H](O)[C@H]1O)C(=O)NC(Cc1c[nH]c2ccccc12)C(N)=O (stereo in doubt)", "target_desc": "Substance-K receptor (Mesocricetus auratus)", "inequality_sign": "<", "pKB": 6}
{"compound": "CC(C)[C@H](NC(=O)[C@H](Cc1c[nH]c2ccccc12)NC(=O)[C@H](Cc1ccc(O)cc1)NC(=O)[C@@H](N)CC(=O)O)C(=O)N[C@H](Cc1c[nH]c2ccccc12)C(=O)N[C@@H](Cc1c[nH]c2ccccc12)C(=O)N[C@@H](CCCCN)C(N)=O", "target_desc": "Substance-K receptor (Mesocricetus auratus)", "inequality_sign": "=", "pKB": 5.6}
{"compound": "CC(C)[C@H](NC(=O)[C@@H](Cc1c[nH]c2ccccc12)NC(=O)[C@H](Cc1ccc(O)cc1)NC(=O)[C@@H](N)CC(=O)O)C(=O)N[C@H](Cc1c[nH]c2ccccc12)C(N)=O", "target_desc": "Substance-K receptor (Mesocricetus auratus)", "inequality_sign": "=", "pKB": 5.4}
{"compound": "CC(C)[C@H](NC(=O)[C@H](Cc1c[nH]c2ccccc12)NC(=O)[C@H](Cc1ccc(O)cc1)NC(=O)[C@H](CC(=O)O)NC(=O)[C@@H](N)Cc1ccc(O[C@@H]2O[C@H](CO)[C@@H](O)[C@H](O)[C@H]2O)cc1)C(=O)N[C@@H](Cc1c[nH]c2ccccc12)C(=O)N[C@H](Cc1c[nH]c2ccccc12)C(=O)N[C@@H](CCCCN)C(N)=O", "target_desc": "Substance-K receptor (Mesocricetus auratus)", "inequality_sign": "<", "pKB": 5}
